test_name: protein stability index of a GFP-peptide fusion (GPS, HEK-293T) (PSI 1-6); higher = more stable;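 also: 24-mer peptide tiles fused after GFP, lentivirally expressed, FACS-sorted into six equal bins by GFP/DsRed ratio, decoded by Illumina sequencing, PSI is the read-weighted mean bin number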
reported_conditions: treatment: DMSO; c terminus: a fixed tail appended
Each entry below carries its recorded protein stability index.

- chain: "DRLRINRFAWPKVLKISYKRNNFY [EPB41L3]"
  protein stability index: 1.81
- chain: "SGSLEILQLLLGCKARMERDGYGM [FEM1A]"
  protein stability index: 2.92
- chain: "TAPQQKPIGKISKNKKKKLKKKQK [SRPK2]"
  protein stability index: 4.92
- chain: "RTMAPEKLLKSMPILQGQIDALLE [SNAP91]"
  protein stability index: 2.83
- chain: "TMLAGHYPFQDSEPVLLFGKIRRG [TRIB3]"
  protein stability index: 2.56
- chain: "ACGDAFTVAIGAESEVYSWGKGAR [NEK8]"
  protein stability index: 2.84

* * *

test_name: protein stability index of a GFP-peptide fusion (GPS, HEK-293T) (PSI 1-6); higher = more stable
reported_conditions: treatment: DMSO; c terminus: a fixed tail appended

- chain: "SPLQTIGEEQTQNPYTELLVLKAH [WDR41]"
  protein stability index: 3.78
- chain: "LTICYPEYAGSNTYEEAAAYIQCQ [GNAI1]"
  protein stability index: 2.46
- chain: "TIQVHRRYWRSLRVMKVEDREGPS [HDAC6]"
  protein stability index: 2.31
- chain: "TYPFLAMIMLKDRRMTVVGRLEGL [FAF2]"
  protein stability index: 2.66
- chain: "PSRGHAYRDYGHSRRDESYSRGYR [RBMY1A1]"
  protein stability index: 4.42
- chain: "YWPLEKDSRIRFGFLTVTNLGVEN [PTPN9]"
  protein stability index: 2.47
- chain: "FFSEIISSVSDVKFSHSGRYMLTR [PPP2R2C]"
  protein stability index: 2.08
- chain: "TRIHILPSMNPDGYEVAAAQGPNK [CPN1]"
  protein stability index: 4.13
- chain: "SCTPRMNRRMVGPDVIPLPHIYGA [FAM189A2]"
  protein stability index: 2.23
- chain: "LIPQPLDSEEDEKMEEDIKEEEEK [PCMTD1]"
  protein stability index: 5.66
- chain: "FDVGGQRSERKKWIHCFEGVTAII [GNAI1]"
  protein stability index: 2.29
- chain: "TILDIFRFALRFIRPDPRSRVTDP [FAF2]"
  protein stability index: 2.75
- chain: "NVDDPTGAHSNAPITAHAEVEVVE [CSNK1G1]"
  protein stability index: 5.35
- chain: "YLDKAPPPGLPAETIKDLMRQFLR [CDK4]"
  protein stability index: 4.45
- chain: "LGCALLAAHAVVLCALPVHVAVEH [SOAT2]"
  protein stability index: 3.43
- chain: "RYADLEAVNRARRPLARPIKPNEI [RHOBTB2]"
  protein stability index: 3.77
- chain: "VGSVALTALVTVSSEEFEDKWFRK [C8orf76]"
  protein stability index: 2.26
- chain: "EGKAPIISGVTKAISSPTVSRLTD [TPPP]"
  protein stability index: 4.52
- chain: "GLQHAPEPDAADGPYDPNSVRISF [SMAD6]"
  protein stability index: 4.24
- chain: "LPECLEYEEEFDYETESETESEIE [GNAS]"
  protein stability index: 5.3
- chain: "QAGPSPAPPTPPEEEDLRRRLKYF [MCOLN1]"
  protein stability index: 4.91
- chain: "CCQWLKPKMRSKEQILELLVLEQF [ZNF449]"
  protein stability index: 2.46
- chain: "CRSKTLGYQHVDLQNFSSSWSDGM [SMTNL2]"
  protein stability index: 2.47
- chain: "ADGSLRMDDPKGDFITLYQMASQS [M1AP]"
  protein stability index: 3.58
- chain: "IDSGSPAEEAGLKNNDLVVAVNGE [PDZK1]"
  protein stability index: 5.45
- chain: "EFEEATGEAGWGAGEGRLGHKRKQ [FOXJ1]"
  protein stability index: 5.26
- chain: "VVLTFITPMLNPLIYTLKNAEMKS [OR4A15]"
  protein stability index: 3.22
- chain: "ELIFSARVLDGKEAKAVGLISHVL [AUH]"
  protein stability index: 2.58
- chain: "GTLGSCSSSSECLEDSTMGSVADT [PLK2]"
  protein stability index: 5.36
- chain: "LVENAKNFPQCVLEISDQEVLEWY [EFHC1]"
  protein stability index: 2.96
- chain: "VQGLEGIKMAMVACGDAFTVAIGA [NEK8]"
  protein stability index: 2.79
- chain: "GDLIEITDAKKREALYAQDPSTGC [KMT5A]"
  protein stability index: 5
- chain: "PLTRLGQLKACTNFDDILNVCDDY [KCNG1]"
  protein stability index: 3.18
- chain: "LTADSRKSHLIFPQPNYADTLISQ [PCDHGA10]"
  protein stability index: 3.17
- chain: "KTRRKTSARDASPTPSTDAEYPAN [NCK2]"
  protein stability index: 5.31
- chain: "TPATPATLSASSSAGGSRTPAMSS [TFE3]"
  protein stability index: 4.99
- chain: "SLVRDTIARVHGTFGAAACSIGFA [POP5]"
  protein stability index: 2.31
- chain: "ESPSFLSLRKGASLSNGQGSRVLH [NCK2]"
  protein stability index: 3.83
- chain: "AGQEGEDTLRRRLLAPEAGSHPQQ [TOR1AIP2]"
  protein stability index: 3.22
- chain: "VIEEAKTAFLLNIQLFEELQELLT [HMOX1]"
  protein stability index: 2.08
- chain: "HERGLKLHQTIYNQACKLLSDDYE [INTS4]"
  protein stability index: 3.18
- chain: "CSRPSGSSSSSGVLMVGPNFRVGK [CSNK1G1]"
  protein stability index: 3.63
- chain: "EEEEGTRSPTLEPPRGRSEAPDSL [SMG5]"
  protein stability index: 5.44
- chain: "KNMDQVAPVANSYRGTLKRQPAFD [ETS2]"
  protein stability index: 3.99
- chain: "GLQILGHTLRASMRELGLLIFFLF [KCNA4]"
  protein stability index: 2.95
- chain: "ILNSVEKYDPHTGHWTNVTPMATK [KLHL12]"
  protein stability index: 3.15
- chain: "VQDKTPLYSQLLQAYKWSNKLQYH [MED27]"
  protein stability index: 2.18
- chain: "LKVKCLNNLAASQLKLDHYRAALR [FKBP8]"
  protein stability index: 2.28
- chain: "ESLPHRLSCLGQQQQEPPLAMGTV [PLAGL1]"
  protein stability index: 3.92
- chain: "LNQIVTEPDANFPQFLHEGLSKPV [FAM104B]"
  protein stability index: 3.86
- chain: "TSTGFDRHTSPVFSPANPESSMED [BCL2L13]"
  protein stability index: 5.39
- chain: "SYWEDLRKQARQLENELDLKLVSF [GOSR1]"
  protein stability index: 2.37
- chain: "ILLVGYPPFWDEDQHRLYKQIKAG [CAMK2A]"
  protein stability index: 2.29
